Assay: protein stability index of a GFP-peptide fusion (yeast GPS) (PSI 1-4); higher = more stable; sorted into four equal gates, so the index is relative within each strain
Details: doa10∆
endpoint-label: protein stability index
Give the figure only, with no unit attached.

Recorded protein stability index, per entry:
Ask: Which measured protein stability index value corresponds to EEIVSNSSRFSDPMLQR [YCS4] ?
Reply: 3.07

Ask: What measured protein stability index goes with IERIGHLLSINYGEKEE [PCI8] ?
Reply: 1.32

Ask: Name the reported protein stability index value associated with the sequence KNFKGIEEIEYNVKNII [PCI8]
Reply: 3.05

***
Ask: Which protein stability index is reported for this sequence? VDFACCTNLTNRTLYEL [GRR1]
Reply: 2.72

Ask: Which protein stability index reading was recorded for the sequence GSFKVVKGTNISEKDLV [RPO31] ?
Reply: 2.6

Ask: Find the recorded protein stability index belonging to SNIEQTESLRVENSVLI [YIL149C/MLP2] and report it.
Reply: 3.25

Ask: Dear colleague, I am looking for the recorded protein stability index of the following sequence: TSLFHKFILSGFIFTSM [RRI2]
Reply: 2.09

Ask: Given VQIKDVNDRYQIPTPNN [CSI1] , state its recorded protein stability index.
Reply: 1.72

###

Experiment: protein stability index of a GFP-peptide fusion (yeast GPS) (PSI 1-4); higher = more stable; sorted into four equal gates, so the index is relative within each strain
Details: doa10∆
Class field: derived from protein stability index; ranges category 1 = under 2, category 2 = from 2 up to 3, category 3 = 3 and over

Ask: GET /class?item= SPFGGSSHAKGIVLEKL [RPS23A]
Reply: category 3

---
Ask: Where would LEDLKDVYASKVRLNAS [PRP8] land among the classes by reported protein stability index?
Reply: category 2

Ask: Any idea which band GCIKIYSSRVDSVTTET [BRN1] is in?
Reply: category 2

Ask: Lab note: sort QLQGPQWMNEMVERWAN [SOH1] into the matching protein stability index band.
Reply: category 3

Ask: // return the class label for PGTVLILLAGRFRGKRV [RPL6A]
Reply: category 1

Ask: In plain terms, what class is TKISTLAVKVHGGSRYA [QCR2] ?
Reply: category 1

Ask: State the band of LLLKLASPHASVRTAVF [ECM29]
Reply: category 1

Ask: Class? Entry: RKWAARAASAKIESSVE [RPS8A]
Reply: category 3

Ask: Hey, which category is GAAPYAAKLKQTENDLK [RPT1] in, do you know?
Reply: category 2

Ask: Textbook exercise: identify the category of the sequence given here, SYSGYDIEDALVLNKSS [RET1] , according to its measured value.
Reply: category 2

Ask: Quick check: band for NENRNTGAGVDVNTNAN [SNF11]
Reply: category 3

Ask: Which category does the recorded protein stability index put KGVYLILSEILCQINKC [YML103C/NUP188] in?
Reply: category 1

Ask: Determine which band this sequence sits in: AIALAVRLGEEDMIRSV [RPN1]
Reply: category 3

###

Experiment: protein stability index of a GFP-peptide fusion (yeast GPS) (PSI 1-4); higher = more stable; sorted into four equal gates, so the index is relative within each strain
Conditions: pdr5∆
endpoint-label: protein stability index
Would you mind answering with just the numeric figure?

Ask: I'd like to know its protein stability index. The sequence in question is ADDVFTGTGLQDENIGL [RPC31]
Reply: 3.44

Ask: Name the reported protein stability index value associated with the sequence VKLGNIWKESLIELSGG [SMC2]
Reply: 2.24

Ask: If you can, please state the reported protein stability index value of ELLSKYKEQIIQGFYWA [SNU114] .
Reply: 2.4

Ask: Entry TLGNQMLSAHNIIESIA [YJR042W/NUP85] has what protein stability index?
Reply: 2.58

More entries:
Ask: Name the recorded protein stability index for GIIEPSLKALASKYNCD [RPL40A] .
Reply: 3.27

Ask: What value of measured protein stability index is listed for VPTVPPSQSEEQKGQMA [MED4] ?
Reply: 2.82

Ask: Form field: reported protein stability index of GPVVAGINSKSGKPFIA [PUP3]
Reply: 3.27

Ask: Please look up its protein stability index: KNVNIEDITEPKPDKPS [ESC2]
Reply: 3.1

Ask: Suppose we examine the sequence SRDLWCFSINDDPVPTP [SSN2] ; what protein stability index value has been reported?
Reply: 2.21

Ask: For VFYQVTPEDADEEEDDE [RPL22B] , what is its reported protein stability index?
Reply: 2.33

Ask: Need protein stability index of NYDIITASSLAHDYNND [YML103C/NUP188] , thanks.
Reply: 2.05
